Hi there, I'd appreciate the recorded growth for every entry that follows.
system: SN12C renal; test: NCI-60 one-dose screen, 48 h (100 = growth as untreated, 0 = no growth, -100 = all killed); settings: 10 µM unless noted
This is part of a sample that, as a whole, favours compounds with a hit. Of some 83,000 tested, about 20% had one in any assay. Active and inactive are the calls of the source. How the source made its calls: active means growth percent below 10; inactive means the rest.

Report growth for every entry below.
1. CN(C)c1ccc(N)c2ccccc12
2. COc1cccc(NC(=O)c2sc3nc4c(cc3c2N)C(=O)CCC4)c1
3. COc1ccc(/C=C2\N=C(c3ccccc3)N(c3cc(OC)c(OC)cc3C(=O)N3N=C(C)CC3=O)C2=O)cc1
4. C[N+](C)(CCCCCC[N+](C)(C)C1c2ccccc2-c2ccccc21)C1c2ccccc2-c2ccccc21
5. COc1ccc(C(=O)/C=C/c2cc(-c3cc(OC)c(OC)c(OC)c3)n[nH]2)cc1OC
6. COc1ccc(C(=O)c2cc(OC)c(OC)c(OC)c2)cc1/C=C/C(=O)c1cc(OC)c(OC)c(OC)c1
7. Cc1ccc(Cc2cnc(NC(=O)/C=C/c3cccc(C)c3)s2)cc1

result:
["-62.2% (active)", "35.3% (inactive)", "93.7% (inactive)", "108% (inactive)", "5.5% (active)", "96.2% (inactive)", "31.4% (inactive)"]

Report growth for every entry below.
1. Cn1cc(-c2nc(-c3cn(C)c4ncccc34)cs2)c2cc(F)ccc21
2. O=C(NC1=CC(=O)c2ccccc2C1=O)c1ccccc1
3. COc1cnc2c(c1)C(=O)c1c-2n(CCCNCCN2CCOCC2)c(=O)c2cc([N+](=O)[O-])ccc12
4. Cn1cc(-c2csc(-c3cn(CCCN4CCCCC4)c4ccccc34)n2)c2cccnc21
5. CC(=O)O[C@H]1CC[C@]2(C)[C@H]3C(=O)C=C4[C@@H]5C[C@](C)(C(=O)N6CCCNCC6)CC[C@]5(C)CC[C@@]4(C)[C@]3(C)CC[C@H]2C1(C)C

result:
["46% (inactive)", "29.2% (inactive)", "4.54% (active)", "-70.9% (active)", "-82.1% (active)"]

Report growth for every entry below.
1. N#CC1c2ccccc2-c2ccccc2N1C(=O)c1ccccc1 (stereo not drawn)
2. COc1ccc(-c2cc(-c3cccs3)n(N=O)c(=O)c2C#N)cc1
3. N#CC1C(=N)Cc2ccccc2-c2ccccc21 (stereo not drawn)

result:
1. 33.3% (inactive)
2. 95.8% (inactive)
3. 54.2% (inactive)

Report growth for every entry below.
1. COc1cc(NC(C)CN(CC(C)C)C(C)C)c2ncccc2c1 (stereo not drawn)
2. COc1ccc(-c2cc(=O)oc3ccc(Cl)cc23)cc1F
3. CC1(c2ccccc2)OC1C(=O)O (stereo not drawn)

result:
104% (inactive)
30.6% (inactive)
106% (inactive)

* * *

test system: PC-3 prostate; test: NCI-60 one-dose screen, 48 h; conditions: 10 µM unless noted
The panel holds about 83,000 compounds, 20% with a hit somewhere; the sample as a whole holds those more often. Active and inactive are the calls of the source. How the source made its calls: active means growth percent below 10; inactive means the rest.
Your response should consist of one outcome taken from active, inactive

Answered examples (9):
COc1ccc(-c2cc(/C=C/C(=O)c3ccc(OC)c(OC)c3)[nH]n2)cc1    active
COc1ccc(C(=O)c2ccc(C)cc2)c(OC)c1OC    inactive
C#CCn1c(C)cc(C)c(C#N)c1=O    inactive
OCC12CCCC(CO)(COC1)C2O (stereo not given)    inactive
Cc1cc2nc3c4cc([N+](=O)[O-])cc([N+](=O)[O-])c4n(CCN(C)C)c3nc2cc1C    inactive
C=C(C)[C@@H]1CC[C@]2(C(=O)O)CC[C@]3(C)[C@H](CC[C@@H]4[C@@]5(C)C/C(=C/c6ccc(OC)cc6)C(=O)C(C)(C)[C@@H]5CC[C@]43C)[C@@H]12    inactive
N=c1c(S(=O)(=O)c2ccccc2)cc2c(=O)n3ccccc3nc2n1C1CCCC1    inactive
COc1ccc(-c2cc(/C=C/C(=O)c3ccc(N)cc3)[nH]n2)cc1    inactive
N#C/C(=C\c1ccc(-c2ccc(F)cc2)o1)c1nc(-c2ccco2)cs1    inactive

Note: attention shifts to another entry.
query: Which outcome was assigned to COC(=O)CCCCCn1c2ccccc2c2c3c(c4c5ccccc5[nH]c4c21)C(=O)N(O)C3=O in this test?
result: inactive
